Target: rh integrin α4β7 (R&D Systems #5397-A30) (human) (UniProt P13612)
Test: α4β7-MAdCAM competition ELISA
Bridge positions count the residues as written; N and C are the ends. Square brackets hold non-standard residues; d marks the D form. Bip = N[C@@H](Cc1ccc(-c2ccccc2)cc1)C(=O)O; 1Nal = N[C@@H](Cc1cccc2ccccc12)C(=O)O; 2Nal = N[C@@H](Cc1ccc2ccccc2c1)C(=O)O; d2Nal = N[C@H](Cc1ccc2ccccc2c1)C(=O)O; NMeR = CN[C@@H](CCCNC(=N)N)C(=O)O; NMeK = CN[C@@H](CCCCN)C(=O)O; Pen = CC(C)(S)[C@H](N)C(=O)O; dNMeK = CN[C@H](CCCCN)C(=O)O
readout-label: IC50

# lookup: IC50 of Ac-[Pen][NMeR]SDTL[Pen][Bip][b‑H‑E][NMeK]-NH2 (disulfide 1-7 (inferred); also: homodimer via DIG) [SEQ ID NO 150]
< 0.01 µM

# lookup: IC50 of Ac-[Pen][NMeR]SDTL[Pen][2Nal]E[NMeK]-NH2 (disulfide 1-7 (inferred); also: homodimer via DIG) [SEQ ID NO 138]
> 0.01 µM

# lookup: IC50 of Ac-[Pen][NMeR]SDTL[Pen][d2Nal]E[dK]-NH2 (disulfide 1-7; SMILES CC(=O)N[C@@H]1C(=O)N(C)[C@@H](CCCNC(=N)N)C(=O)N[C@@H](CO)C(=O)N[C@@H](CC(=O)O)C(=O)N[C@@H]([C@@H](C)O)C(=O)N[C@@H](CC(C)C)C(=O)N[C@H](C(=O)N[C@H](Cc2ccc3ccccc3c2)C(=O)N[C@@H](CCC(=O)O)C(=O)N[C@H](CCCCN)C(N)=O)C(C)(C)SSC1(C)C) [SEQ ID NO 11]
> 0.025 µM

# lookup: IC50 of Ac-[Pen][NMeR]SDTL[Pen][1Nal][dE][dK]-NH2 (disulfide 1-7 (inferred); also: homodimer via DIG linker) [SEQ ID NO 32]
< 0.01 µM

# lookup: IC50 of Ac-[Pen][NMeR]SDTL[Pen][1Nal]E[dNMeK]-NH2 (disulfide 1-7; SMILES CC(=O)N[C@@H]1C(=O)N(C)[C@@H](CCCNC(=N)N)C(=O)N[C@@H](CO)C(=O)N[C@@H](CC(=O)O)C(=O)N[C@@H]([C@@H](C)O)C(=O)N[C@@H](CC(C)C)C(=O)N[C@H](C(=O)N[C@@H](Cc2cccc3ccccc23)C(=O)N[C@@H](CCC(=O)O)C(=O)N(C)[C@H](CCCCN)C(N)=O)C(C)(C)SSC1(C)C) [SEQ ID NO 18]
> 0.01 µM

# lookup: IC50 of Ac-[Pen][NMeR]SDTL[Pen][2Nal][dK]-NH2 (disulfide 1-7; SMILES CC(=O)N[C@@H]1C(=O)N(C)[C@@H](CCCNC(=N)N)C(=O)N[C@@H](CO)C(=O)N[C@@H](CC(=O)O)C(=O)N[C@@H]([C@@H](C)O)C(=O)N[C@@H](CC(C)C)C(=O)N[C@H](C(=O)N[C@@H](Cc2ccc3ccccc3c2)C(=O)N[C@H](CCCCN)C(N)=O)C(C)(C)SSC1(C)C) [SEQ ID NO 88]
> 0.01 µM

Reference source: patent US20160159862A1
